B1: Arabidopsis thaliana cryptochrome 2 (CRY2, UniProt Q96524), residues 1-535 fused after the Gal4 DNA-binding domain (Gal4BD-CRY2(535)); mutagenized window 321-412, Q96524 (parent)
chain: MKMDKKTIVWFRRDLRIEDNPALAAAAHEGSVFPVFIWCPEEEGQFYPGRASRWWMKQSLAHLSQSLKALGSDLTLIKTHNTISAILDCIRVTGATKVVFNHLYDPVSLVRDHTVKEKLVERGISVQSYNGDLLYEPWEIYCEKGKPFTSFNSYWKKCLDMSIESVMLPPPWRLMPITAAAEAIWACSIEELGLENEAEKPSNALLTRAWSPGWSNADKLLNEFIEKQLIDYAKNSKKVVGNSTSLLSPYLHFGEISVRHVFQCARMKQIIWARDKNSEGEESADLFLRGIGLREYSRYICFNFPFTHEQSLLSHLRFFPWDADVDKFKAWRQGRTGYPLVDAGMRELWATGWMHNRIRVIVSSFAVKFLLLPWKWGMKYFWDTLLDADLECDILGWQYISGSIPDGHELDRLDNPALQGAKYDPEGEYIRQWLPELARLPTEWIHHPWDAPLTVLKASGVELGTNYAKPIVDIDTARELLAKAISRTREAQIMIGAAPDEIVADSFEALGANTIKEPGLCPSVSSNDQQVPSAV

Variants of: B1
Test: yeast two-hybrid growth selection (MaV203; Gal4BD-CRY2(1-535) library x Gal4AD-CIB1; URA3 reporter on SC -Trp/-Leu/-Ura) in the dark, deep sequencing before and after selection, Enrich2 scoring; three independent screens (one at 48 h, two …)
Settings: with CIB1 (CRYPTOCHROME-INTERACTING BASIC-HELIX-LOOP-HELIX 1), dark (no blue light), screens 1, 3 and 4, Svar > 0 = enriched under dark selection for CRY2-CIB1 two-hybrid growth (URA3 reporter), < 0 = depleted, relative to wild type (whose scores are 0). 'The Enrich2 software calculates, parent: 0, not an affinity, scale: Enrich2 score, numbering: uniprot, sequence starts at 1
Hi, to clarify the labels: 1.0 covers enrichment from -0.1 upward, 0.0 covers anything below -0.1.

VARIANT NAME | ASSIGNED LABEL
D411E | 1.0
I361N | 0.0
R332G | 1.0
M345T | 0.0
D406A | 1.0
P373S | 0.0
R332S | 1.0
M345R | 0.0
A388S | 1.0
S403I | 1.0
D387H | 0.0
A350D | 0.0
K327T | 0.0
H408R | 1.0
P405A | 1.0
V360G | 0.0
D326Y | 0.0
M378T | 1.0
N356Y | 1.0
S403R | 1.0
A388D | 0.0
L386F | 0.0
G407S | 0.0
M345K | 0.0
I358T | 0.0
T336A | 0.0
K329M | 1.0
L372H | 0.0
G407C | 1.0
T384S | 1.0
E409G | 1.0
L385F | 1.0
C392R | 0.0
V360L | 1.0
W374R | 1.0
R335T | 1.0
L390W | 1.0
D393E | 1.0
D389Y | 0.0
W349G | 1.0
W321C | 1.0
W382R | 0.0
M378L | 0.0
C392W | 0.0
D389N | 0.0
D393N | 1.0
